- Tested on: NCI-H23 lung
- Assay overview: NCI-60 one-dose screen, 48 h (100 = growth as untreated, 0 = no growth, -100 = all killed)
- Particulars: 10 µM
About 83,000 compounds went through this panel and 20% of them were active in at least one assay; those are over-represented in the sample as a whole.
Property measured: growth (%)
Give bare numbers, in %.

[[record]]
compound = "O=[N+]([O-])c1ccc(N=Nc2ccc(O)c3ccccc23)cc1"
property_measured = "growth"
recorded_number = 6.51

[[record]]
compound = "CC1(O)OC(COc2ccc(Cl)cc2)COC1O (configuration not stated)"
property_measured = "growth"
recorded_number = 102

[[record]]
compound = "Cc1cccc(C(=O)N(C(C)C)C(C)C)c1"
property_measured = "growth"
recorded_number = 102

[[record]]
compound = "NC(=O)N/N=C\\c1ccco1"
property_measured = "growth"
recorded_number = 108

[[record]]
compound = "CCC(C)(O)c1ccc(C)cc1 (configuration not stated)"
property_measured = "growth"
recorded_number = 103


# batch: return growth for each of the 2 compounds below
1. O=S(=O)(O)c1cc(O)c2c(N=Cc3ccccc3O)c(S(=O)(=O)O)ccc2c1
2. O=C(NCc1ccco1)Nc1c(Cl)cc(Cl)cc1Cl

Reply:
1. 101
2. 104
